Test system: PA-1
method-notes: Primary qHTS to identify gynecologic anti-cancer compounds using libraries of approved drugs and bioactive compounds (AID 1345084); further: nearly all actives have a fitted effect of over 55% in size
settings: Gynecologic cancer cell panel viability, ATPlite luminescence, 48 h; series mostly up to 57.5 µM
Source text: National Center for Advancing Translational Sciences [NCATS] Assay Overview: Chemotherapeutic drug responses vary from cancer to cancer and from patient to patient. […] ATPlite is a luminescence based assay reliant on the conversion of a luciferase substrate to light in the presence of ATP. As a cytotoxic compound will suppress growth and decrease the number of cells, the concentration of ATP will decrease, and less light signal will be detected in the well. […]
Results filed as inconclusive are left out. Active and inactive are the calls of the source. The call rests on the fitted dose curve; in most records, active means well fitted cell-killing curve with a large enough effect; inconclusive means small, poorly fitted or top-dose-only effect, or effect the other way; inactive means flat fitted curve, though single readings scatter.
Possible outcomes: active, inactive

compound | group
CN(C)CCCSc1ccccc1NC(=O)/C=C/c1ccccc1 | inactive
CO[C@H]1C[C@@H]2CC[C@@H](C)[C@@](O)(O2)C(=O)C(=O)N2CCCC[C@H]2C(=O)O[C@H]([C@H](C)C[C@@H]2CC[C@@H](OC(=O)C(C)(CO)CO)[C@H](OC)C2)CC(=O)[C@H](C)/C=C(\C)[C@@H](O)[C@@H](OC)C(=O)[C@H](C)C[C@H](C)/C=C/C=C/C=C/1C | inactive
O=C(OCc1ccccc1)c1ccc(O)cc1 | inactive
CC1CC(OC(=O)C(O)c2ccccc2)CC(C)(C)C1 (stereo unspecified) | inactive
C[C@]12CC[C@@H]3c4ccc(OC(=O)c5ccccc5)cc4CC[C@H]3[C@@H]1CC[C@@H]2O | inactive
C[C@H]1O[C@@H](O[C@H]2[C@@H](O)C[C@H](O[C@H]3[C@@H](O)C[C@H](O[C@H]4CC[C@@]5(C)[C@H](CC[C@@H]6[C@@H]5C[C@@H](O)[C@]5(C)[C@@H](C7=CC(=O)OC7)CC[C@]65O)C4)O[C@@H]3C)O[C@@H]2C)C[C@H](O)[C@@H]1O | active

* * *

method-notes: qHTS Assay for Identifying Gametocytocidal Compounds (AID 743244);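 further: on the % scale 0 is the no-effect control and ±100 the full control effect; actives lower the fluorescent signal which means gametocytes are killed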
settings: P. falciparum 3D7 stage III-V gametocytes, alamarBlue, 72 h; active compounds read low
Results filed as inconclusive are left out.
Below, each entry is listed alongside its reported max response.
assay-metric: max response (%)

compound | measured-value
CN1CCN(C(c2ccccc2)c2ccc(Cl)cc2)CC1 (stereo unspecified) | 1.98
CN1CCc2c(c3ccccc3n2Cc2ccccc2)C1 | 9.99
CC1CCCC(C)N1NC(=O)c1ccc(Cl)c(S(N)(=O)=O)c1 (stereo unspecified) | 7.73
NC[C@H]1O[C@H](O[C@H]2[C@H](O)[C@@H](O[C@H]3O[C@H](CO)[C@@H](O)[C@H](N)[C@H]3O)[C@H](N)C[C@@H]2N)[C@H](O)[C@@H](O)[C@@H]1O | 19.4
NCC[C@H](O)C(=O)N[C@@H]1C[C@H](N)[C@@H](O[C@H]2O[C@H](CN)CC[C@H]2N)[C@H](O)[C@H]1O[C@H]1O[C@H](CO)[C@@H](O)[C@H](N)[C@H]1O | -1.8
COc1ccc(-c2noc(CC(=O)O)c2-c2ccc(OC)cc2)cc1 | 49.9
O=C(O)CC/C=C\CC[C@@H]1[C@@H](N2CCCCC2)[C@@H](O)C[C@@H]1OCc1ccc(-c2ccccc2)cc1 | -9.09
OC1OC[C@@H](O)[C@H](O)[C@@H]1O (stereo partly specified) | 7.58
CC[C@H]1NC(=O)[C@@H](NC(=O)c2ncccc2O)[C@@H](C)OC(=O)[C@H](c2ccccc2)NC(=O)[C@@H]2CC(=O)CCN2C(=O)[C@H](Cc2ccccc2)N(C)C(=O)[C@@H]2CCCN2C1=O | 3.22
CCCCCCCCCCCCCCCCCC(=O)OC[C@@H](O)[C@H]1OC[C@H](O)[C@H]1O | -8.87
NC(N)=NCC1COC2(CCCCC2)O1 (stereo unspecified) | 9.74
C[C@H](NCCc1ccc(O)cc1)[C@H](O)c1ccc(O)cc1 | 10.2
CCCCCCCCCCCCCC(=O)OCC(COP(=O)([O-])OCC[N+](C)(C)C)OC(=O)CCCCCCCCCCCCC (stereo unspecified) | 8.75
FC(F)(F)COCC(F)(F)F | 3.82
CCN(CC)CCOC[C@H]1O[C@@H](O)[C@H](OCCN(CC)CC)[C@@H](O)[C@@H]1O | 6.01
CCN(CC)CCC(=O)N1c2ccccc2Sc2ccc(C(F)(F)F)cc21 | -16
Cc1cc(C)c(NC(=O)C[C@H](CC(=O)O)c2cccc3ccccc23)c(C(=O)N2CCC3(CCCC3)CC2)c1 | -8.09
O=C(O)Cc1nn(Cc2ccc(Br)cc2F)c(=O)c2ccccc12 | -4.01
Cc1nc(NS(=O)(=O)c2ccc(N)cc2)nc(C)c1Br | 21.7
NC(=S)NS(=O)(=O)c1ccc(N)cc1 | 5.02
C=C1[C@H](CO)[C@@H](O)C[C@@H]1n1cnc2c(=O)[nH]c(N)nc21 | 18.1
CC(C)OC(=O)Nc1ccc2nc(-c3cscn3)[nH]c2c1 | -0.783
NCCCC[C@H](N)C(=O)O | 5.86
N=C(N)n1cccn1 | 13.6
CC(C)(C)NCC(O)c1ccc(O)c(CO)n1 (stereo unspecified) | 6.55
O=C(c1cc2ccccc2o1)N1CCN(Cc2ccccc2)CC1 | 7.29
CO[C@@H]1[C@H](OC(=O)/C=C/C=C/C=C/C=C/C(=O)O)CC[C@]2(CO2)[C@H]1[C@@]1(C)O[C@@H]1CC=C(C)C | -5.74
O=c1[nH]c(=O)n([C@H]2C[C@H](O)[C@@H](CO)O2)cc1/C=C/Br | 6.97
CO | 16
Cn1c(=O)c2c(ncn2CCOC(=O)C(C)(C)Oc2ccc(Cl)cc2)n(C)c1=O | 17.7
C[C@@](Cc1ccc(O)c(O)c1)(NN)C(=O)O | -3.47
CCCOc1cc(N)ccc1C(=O)OCCN(CC)CC | -20.2
C=Cc1ccc(S(=O)(=O)O)cc1 | -6.42
C[C@]12CC[C@@H]3c4ccc(O)cc4CC[C@H]3[C@@H]1CC[C@@H]2OP(=O)(O)O | -0.293
CC1C(=O)CC2C3(C)CCC2(C(C)C(=O)O)C(=O)C13 (stereo unspecified) | -7.97
O=C(O)COc1ccc(CCNS(=O)(=O)c2ccccc2)s1 | -5.07
NS(=O)(=O)c1cc2c(cc1Cl)NC(Cc1ccccc1)NS2(=O)=O (stereo unspecified) | 18.5
C[Si](C)(C)O[Si](C)(C)C | 4.27
Cc1cc2nc3c(=O)[nH]c(=O)nc-3n(C[C@H](O)[C@H](O)[C@H](O)COP(=O)(O)OP(=O)(O)OC[C@H]3O[C@@H](n4cnc5c(N)ncnc54)[C@H](O)[C@@H]3O)c2cc1C | -3.17
O=P(O)(O)OP(=O)(O)O | 2.77
O=C1CCC(c2ccccc2)(C2CCN(Cc3ccccc3)CC2)C(=O)N1 (stereo unspecified) | 0.775
